protocol description: Half life in rat at 1 mg/kg, iv
Format: ADME, organism-based
details: in vivo
result type: half-life (h)

Study these solved cases before continuing.
molecule smiles | half-life (h)
C[C@@H](Cn1c(=O)[nH]/c(=N\c2ccc(Oc3ccccn3)cc2)n(Cc2ccc(Cl)cc2)c1=O)C(=O)O | 10.1
C[C@@H](Cn1c(=O)[nH]/c(=N\c2ccc(Oc3ccsn3)cc2)n(Cc2ccc(Cl)cc2)c1=O)C(=O)O | 4.4

[A] Cc1ccc(Cn2c(Nc3ccc(OC(C)C)c(Cl)c3)nc(=O)n(CCC(=O)O)c2=O)cc1
[B] C[C@@H](Cn1c(=O)[nH]/c(=N\c2ccc(Oc3ccnc(F)c3)cc2)n(Cc2ccc(Cl)cc2)c1=O)C(=O)O
Ask: Thinking about recorded half-life values, which is higher, A or B ? Indicate your choice by writing its label.
Result: B
